Sourced from PubChem BioAssay AID1508600

- Test name: Components of the Cytosolic LPS Sensing Pathway: Gene Identification via Genome-wide siRNA Screen;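 also: robust z of the log signal after scaling to non-targeting control siRNA wells of the plate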
- Test context: RAW264.7 macrophages, IL-1a HTRF, actives lie on both sides, screened at 100 nM (by protocol), cells primed 5 h with Pam3CSK4 first
Among all 53,000 sequences or so, about 3,700 (7%) were called active. The sample as a whole holds a higher share of actives than the screen did.
Assay metric: z-score

Input sequence	Numeric readout
GGUGAAAAGAUGCAGGUGATT against Atp1a3	-1.1
GGGUUCAGGAGAACUAACUTT against Tmem40	-1.92
CCACAAAGAAUGCAUUACUTT against Eml3	-0.912
GGAGCUAGUAUGUUCAACATT against Ubqln1	-0.942
GGUUUGGCAAACAUUUCAUTT against Akr1c20	2.02
GGUAUUUAUGAAGCACACATT against Clcn3	0.451
GGACAUUUUAGUUGUCUUGTT against Slc38a4	-0.607
GGUCCACUGAUUCUGAUAATT against Cyp4a31	1.79
GGUAAGAAGACAAACACUCTT against Ly6g6d	0.237
GCACAAAUGGGAAUACGACTT against Klhl36	-0.94
GCUAUGGGAUAUGAGCUGATT against Antkmt	-0.75
GGAUCAAGUGGCUGAUUUGTT against Ube2t	-0.457
